Parameter IC50: see the listing below.
Target: Phosphatidylinositol 4,5-bisphosphate 3-kinase catalytic subunit gamma isoform (Homo sapiens, UniProt P48736)
Sequence (P48736 whole entry, canonical isoform): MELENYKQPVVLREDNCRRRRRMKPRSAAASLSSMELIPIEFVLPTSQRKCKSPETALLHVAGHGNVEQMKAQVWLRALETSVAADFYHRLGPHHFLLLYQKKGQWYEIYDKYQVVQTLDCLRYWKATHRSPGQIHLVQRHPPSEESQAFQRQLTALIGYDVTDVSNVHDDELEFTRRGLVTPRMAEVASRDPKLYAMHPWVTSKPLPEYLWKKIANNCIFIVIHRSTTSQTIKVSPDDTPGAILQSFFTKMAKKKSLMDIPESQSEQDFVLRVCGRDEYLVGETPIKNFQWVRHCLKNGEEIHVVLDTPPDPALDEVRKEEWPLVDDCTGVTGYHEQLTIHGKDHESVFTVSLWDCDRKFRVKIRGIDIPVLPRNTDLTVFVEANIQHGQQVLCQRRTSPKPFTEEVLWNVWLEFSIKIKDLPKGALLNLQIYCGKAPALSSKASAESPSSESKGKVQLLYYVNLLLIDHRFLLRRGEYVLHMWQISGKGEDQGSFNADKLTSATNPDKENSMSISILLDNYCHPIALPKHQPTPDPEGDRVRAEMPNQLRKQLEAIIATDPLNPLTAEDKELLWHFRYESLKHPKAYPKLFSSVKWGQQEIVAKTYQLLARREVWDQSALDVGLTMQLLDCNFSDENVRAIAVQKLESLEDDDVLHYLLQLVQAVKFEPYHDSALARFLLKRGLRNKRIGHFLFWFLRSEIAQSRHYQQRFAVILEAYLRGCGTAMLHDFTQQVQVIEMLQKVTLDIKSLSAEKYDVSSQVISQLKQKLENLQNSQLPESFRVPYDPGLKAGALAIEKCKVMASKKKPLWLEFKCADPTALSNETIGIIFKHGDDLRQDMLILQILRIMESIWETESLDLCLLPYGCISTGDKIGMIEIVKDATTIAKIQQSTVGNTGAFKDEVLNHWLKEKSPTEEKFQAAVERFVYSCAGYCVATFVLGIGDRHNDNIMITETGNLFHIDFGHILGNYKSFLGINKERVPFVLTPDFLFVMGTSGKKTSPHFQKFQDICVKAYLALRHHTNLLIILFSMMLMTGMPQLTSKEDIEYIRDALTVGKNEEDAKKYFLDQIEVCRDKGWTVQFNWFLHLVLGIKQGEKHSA
Experiment: Inhibition of recombinant human C-terminal His6-tagged p110gamma expressed in insect cells using phosphatidylinositol as substrate in presence of gamma-32P-ATP after 5 mins by thin layer chromatographic method

Query: Requested field: IC50. Item: COc1ccccc1-n1c(Cn2nc(C#C[C@@H](C)O)c3c(N)ncnc32)cc2cccc(C)c2c1=O
Response: < 1000 nM

Query: Requested field: IC50. Item: Cc1cccc2cc(Cn3nc(-c4ccc5nc(N)oc5c4)c4c(N)ncnc43)n(-c3ccccc3)c(=O)c12
Response: 100 to 1000 nM

Query: Requested field: IC50. Item: Cc1cccnc1-n1c(Cn2nc(-c3cccc(O)c3)c3c(N)ncnc32)cc2cccc(C)c2c1=O
Response: < 1000 nM

Query: Requested field: IC50. Item: Cc1ccccc1-n1c(Cn2nc(/C=C3/SC(=O)NC3=O)c3c(N)ncnc32)cc2cccc(C)c2c1=O
Response: < 100 nM

* * *

Biological target: Phosphatidylinositol 4,5-bisphosphate 3-kinase catalytic subunit gamma isoform (Homo sapiens, UniProt P48736)
Experiment: Inhibition of recombinant human C-terminal His6-tagged p110gamma expressed in insect cells using phosphatidylinositol as substrate in presence of gamma-32P-ATP after 5 mins by thin layer chromatographic method
pIC50: −log10 of the molar value.
Property: pIC50

CC(=O)Nc1nc2ccc(-c3nn(Cc4cc5cccc(C)c5c(=O)n4-c4ccccc4C)c4ncnc(N)c34)cc2o1    > 7.00
CC(=O)Nc1nc2ccc(-c3nn(Cc4cc5cccc(C)c5c(=O)n4-c4ccccc4)c4ncnc(N)c34)cc2[nH]1    > 7.00
Cc1cccc2cc(Cn3nc(-c4cc(O)cc(F)c4)c4c(N)ncnc43)n(-c3ccccc3OCCN3CCOCC3)c(=O)c12    > 6.00
Cc1ccccc1-n1c(Cn2nc(-c3ccc4sc(N)nc4c3)c3c(N)ncnc32)cc2cccc(C)c2c1=O    > 7.00
Cc1cccc2cc([C@H](C)Nc3ncnc4[nH]cc(F)c34)n(C3CC3)c(=O)c12    > 7.00
Cc1ccccc1-n1c(Cn2nc(CF)c3c(N)ncnc32)cc2cccc(C)c2c1=O    > 7.00
Cc1cccc2cc(Cn3nc(I)c4c(N)ncnc43)n(C3CCC3)c(=O)c12    > 5.00
Nc1ncnc2c1c(-c1cn[nH]c1)nn2Cc1cc2cccc(F)c2c(=O)n1-c1ccccc1F    > 5.00

Query: Requested field: pIC50. Item: CCN(Cc1cc2cccc(C)c2c(=O)n1-c1ccccc1C)c1ncnc2[nH]cnc12
Response: > 5.00

* * *

Target: PI3K p110 beta/p85 alpha (Homo sapiens)
Sequence (P27986 whole entry): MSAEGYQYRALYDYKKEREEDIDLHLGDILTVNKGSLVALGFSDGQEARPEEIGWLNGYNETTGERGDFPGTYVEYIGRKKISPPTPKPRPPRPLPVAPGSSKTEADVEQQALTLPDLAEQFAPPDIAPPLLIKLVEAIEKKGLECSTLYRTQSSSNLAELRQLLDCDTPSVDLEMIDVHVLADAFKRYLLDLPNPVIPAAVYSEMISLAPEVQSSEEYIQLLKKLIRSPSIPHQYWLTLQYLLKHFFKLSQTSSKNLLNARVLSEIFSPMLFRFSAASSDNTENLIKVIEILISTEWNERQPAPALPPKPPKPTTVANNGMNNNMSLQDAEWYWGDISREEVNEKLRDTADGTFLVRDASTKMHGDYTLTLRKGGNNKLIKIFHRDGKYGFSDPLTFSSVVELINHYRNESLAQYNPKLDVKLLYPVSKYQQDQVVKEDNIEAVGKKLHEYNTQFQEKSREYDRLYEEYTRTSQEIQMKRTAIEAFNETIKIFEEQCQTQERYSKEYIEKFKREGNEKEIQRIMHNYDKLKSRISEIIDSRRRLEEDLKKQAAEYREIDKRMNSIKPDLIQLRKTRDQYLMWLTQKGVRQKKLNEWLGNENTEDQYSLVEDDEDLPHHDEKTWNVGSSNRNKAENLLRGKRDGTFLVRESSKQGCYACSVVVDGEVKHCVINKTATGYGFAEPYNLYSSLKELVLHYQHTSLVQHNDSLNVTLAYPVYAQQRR
Sequence (P42338 whole entry): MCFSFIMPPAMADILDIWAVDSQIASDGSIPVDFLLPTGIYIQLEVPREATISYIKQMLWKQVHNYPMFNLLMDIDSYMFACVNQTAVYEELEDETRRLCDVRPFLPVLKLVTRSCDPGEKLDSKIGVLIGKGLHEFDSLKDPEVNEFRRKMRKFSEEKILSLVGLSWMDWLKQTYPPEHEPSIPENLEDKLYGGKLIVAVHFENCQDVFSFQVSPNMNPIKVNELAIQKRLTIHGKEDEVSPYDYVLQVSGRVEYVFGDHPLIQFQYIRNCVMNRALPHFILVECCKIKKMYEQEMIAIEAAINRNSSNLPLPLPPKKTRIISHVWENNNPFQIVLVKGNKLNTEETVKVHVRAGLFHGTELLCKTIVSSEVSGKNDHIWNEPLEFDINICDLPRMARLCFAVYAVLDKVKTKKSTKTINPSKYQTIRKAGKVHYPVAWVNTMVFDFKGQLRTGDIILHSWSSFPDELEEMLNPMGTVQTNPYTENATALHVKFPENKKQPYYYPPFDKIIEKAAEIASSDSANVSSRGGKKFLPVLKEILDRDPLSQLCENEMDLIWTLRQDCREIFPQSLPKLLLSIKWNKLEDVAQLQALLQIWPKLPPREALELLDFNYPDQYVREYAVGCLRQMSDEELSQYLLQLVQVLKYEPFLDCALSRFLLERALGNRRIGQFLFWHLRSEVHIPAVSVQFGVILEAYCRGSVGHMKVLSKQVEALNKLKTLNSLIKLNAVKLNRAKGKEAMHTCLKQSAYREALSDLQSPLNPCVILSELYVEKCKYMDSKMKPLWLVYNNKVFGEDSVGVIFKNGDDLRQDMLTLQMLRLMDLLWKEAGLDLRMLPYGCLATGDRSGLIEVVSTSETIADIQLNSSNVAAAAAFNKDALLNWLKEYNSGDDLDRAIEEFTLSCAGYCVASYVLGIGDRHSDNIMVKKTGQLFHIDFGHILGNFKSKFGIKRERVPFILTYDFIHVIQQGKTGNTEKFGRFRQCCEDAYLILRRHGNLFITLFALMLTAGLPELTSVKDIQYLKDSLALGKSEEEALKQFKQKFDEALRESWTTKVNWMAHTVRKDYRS
Test: Inhibition of N-terminal His6-tagged recombinant full-length human p110beta/untagged recombinant full length p85alpha expressed in baculovirus infected Sf21 cells using phosphatidylinositol as substrate in presence of gamma-32P-ATP after 5 mins by thin layer chromatographic method
pIC50: −log10 of the molar value.
Property: pIC50

Query: Requested field: pIC50. Item: Cc1cccc2cc(Cn3nc(-c4cccc(O)c4)c4c(N)ncnc43)n(C3CCC3)c(=O)c12
Response: > 5.00

Query: Requested field: pIC50. Item: Cc1cccc2cc(Cn3nc(-c4cnn(C)c4)c4c(N)ncnc43)n(-c3ccccc3F)c(=O)c12
Response: < 5.00

Query: Requested field: pIC50. Item: CC(=O)Nc1nc2ccc(-c3nn(Cc4cc5cccc(F)c5c(=O)n4C(C)C)c4ncnc(N)c34)cc2s1
Response: > 5.00

Query: Requested field: pIC50. Item: CC(=O)Nc1nc2ccc(-c3nn(Cc4cc5cccc(Cl)c5c(=O)n4C(C)C)c4ncnc(N)c34)cc2s1
Response: > 7.00

* * *

Parameter IC50: see the listing below.
Target: PI3K p110 beta/p85 alpha (Homo sapiens)
Assay: Inhibition of N-terminal His6-tagged recombinant full-length human p110beta/untagged recombinant full length p85alpha expressed in baculovirus infected Sf21 cells using phosphatidylinositol as substrate in presence of gamma-32P-ATP after 5 mins by thin layer chromatographic method

C[C@H](Nc1ncnc2[nH]cnc12)c1cc2cccc(Cl)c2c(=O)n1C1CC1    < 0.1 µM
Cc1ccccc1-n1c(Cn2nc(-c3ccc(O)c(Cl)c3)c3c(N)ncnc32)cc2cccc(C)c2c1=O    < 10 µM

# next molecule below
Query: Provide value of IC50 for this record tested with PI3K p110 beta/p85 alpha (Homo sapiens): Cc1cccc2cc([C@H](C)Nc3nc(Cl)nc4[nH]cnc34)n(C3CC3)c(=O)c12
Response: < 0.1 µM

* * *

Target: PI3-kinase p110-delta/p85-alpha (Homo sapiens)
Experiment: Inhibition of N-terminal His6-tagged recombinant full-length human p110delta/untagged recombinant full length p85alpha expressed in baculovirus infected Sf21 cells using phosphatidylinositol as substrate in presence of gamma-32P-ATP after 5 mins by thin layer chromatographic method
pIC50: −log10 of the molar value.
Property: pIC50

Cc1cccc2cc(Cn3nc(-c4ccc(F)c(O)c4)c4c(N)ncnc43)n(C3CCCC3)c(=O)c12    > 7.00
COc1ccc(-c2nn(Cc3cc4cccc(C)c4c(=O)n3-c3ccccc3C)c3ncnc(N)c23)cc1OC    > 6.00
Cc1ccccc1-n1c(Cn2nc(-c3ccc(O)cc3)c3c(N)ncnc32)cc2cccc(C)c2c1=O    > 6.00
Cc1cccc2cc(Cn3nc(-c4cn[nH]c4)c4c(N)ncnc43)n(-c3ccccc3F)c(=O)c12    > 7.00
Cc1cccc2cc(Cn3nc(I)c4c(N)ncnc43)n(-c3ccccc3Cl)c(=O)c12    > 7.00
Cc1cccc2cc([C@H](C)Nc3nc(F)nc4[nH]cnc34)n(-c3ccccc3)c(=O)c12    > 7.00

Query: Provide value of pIC50 for this record tested with PI3-kinase p110-delta/p85-alpha (Homo sapiens): Cc1ccccc1-n1c(Cn2nc(-c3cccc(F)c3)c3c(N)ncnc32)cc2cccc(C)c2c1=O
Response: > 5.00

Query: Provide value of pIC50 for this record tested with PI3-kinase p110-delta/p85-alpha (Homo sapiens): Cc1cccc2cc(Cn3nc(-c4cn[nH]c4)c4c(N)ncnc43)n(-c3ccccc3Cl)c(=O)c12
Response: 5.00 to 7.00

Query: Provide value of pIC50 for this record tested with PI3-kinase p110-delta/p85-alpha (Homo sapiens): Cc1cccc2cc([C@H](C)Nc3ncnc4[nH]cc(C#N)c34)n(-c3ccccc3)c(=O)c12
Response: > 7.00

Query: Provide value of pIC50 for this record tested with PI3-kinase p110-delta/p85-alpha (Homo sapiens): Cc1cccc2cc(Cn3nc(-c4ccc5nc(N)sc5c4)c4c(N)ncnc43)n(-c3ccccc3)c(=O)c12
Response: > 7.00

Query: Provide value of pIC50 for this record tested with PI3-kinase p110-delta/p85-alpha (Homo sapiens): Cc1cccc2cc(Cn3nc(I)c4c(N)ncnc43)n(-c3ccccc3F)c(=O)c12
Response: > 7.00

Query: Provide value of pIC50 for this record tested with PI3-kinase p110-delta/p85-alpha (Homo sapiens): Cc1cccc2cc([C@H](C)Nc3ncnc4[nH]cc(F)c34)n(-c3ccccc3)c(=O)c12
Response: > 7.00

Query: Provide value of pIC50 for this record tested with PI3-kinase p110-delta/p85-alpha (Homo sapiens): Cc1ccccc1-n1c(Cn2nc(C#CCO)c3c(N)ncnc32)cc2cccc(C)c2c1=O
Response: > 7.00

* * *

Parameter IC50: see the listing below.
Molecular target: PI3-kinase p110-delta/p85-alpha (Homo sapiens, UniProt O00329)
Sequence (P27986 whole entry): as the sequence (P27986 whole entry) above
Sequence (O00329 whole entry): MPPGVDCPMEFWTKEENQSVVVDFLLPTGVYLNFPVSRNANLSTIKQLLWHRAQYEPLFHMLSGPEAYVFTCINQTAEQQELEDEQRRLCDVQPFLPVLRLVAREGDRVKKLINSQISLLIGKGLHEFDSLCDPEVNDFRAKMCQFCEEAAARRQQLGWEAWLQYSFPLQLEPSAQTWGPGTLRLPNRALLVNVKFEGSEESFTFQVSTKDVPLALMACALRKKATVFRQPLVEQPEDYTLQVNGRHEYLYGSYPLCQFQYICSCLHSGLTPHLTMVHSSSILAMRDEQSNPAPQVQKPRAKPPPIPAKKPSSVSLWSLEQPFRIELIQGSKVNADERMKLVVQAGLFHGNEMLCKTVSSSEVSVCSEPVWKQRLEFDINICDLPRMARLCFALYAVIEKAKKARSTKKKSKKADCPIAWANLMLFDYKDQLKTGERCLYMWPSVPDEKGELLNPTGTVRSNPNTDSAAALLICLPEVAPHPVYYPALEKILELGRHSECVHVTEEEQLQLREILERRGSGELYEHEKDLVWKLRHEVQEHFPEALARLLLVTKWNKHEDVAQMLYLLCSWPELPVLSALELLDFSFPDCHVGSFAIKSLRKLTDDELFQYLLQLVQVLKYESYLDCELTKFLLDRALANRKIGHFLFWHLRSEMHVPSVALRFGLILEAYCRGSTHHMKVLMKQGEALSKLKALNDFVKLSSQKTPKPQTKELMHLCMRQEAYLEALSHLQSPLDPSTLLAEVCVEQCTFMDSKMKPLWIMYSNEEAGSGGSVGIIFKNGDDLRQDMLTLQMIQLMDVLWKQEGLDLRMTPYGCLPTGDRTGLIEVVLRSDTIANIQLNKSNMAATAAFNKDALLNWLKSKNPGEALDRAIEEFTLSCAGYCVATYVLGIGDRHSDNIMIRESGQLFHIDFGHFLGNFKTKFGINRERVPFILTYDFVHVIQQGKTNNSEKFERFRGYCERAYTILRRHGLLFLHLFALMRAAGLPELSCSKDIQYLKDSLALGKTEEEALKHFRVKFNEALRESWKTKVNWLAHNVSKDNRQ
Assay: Inhibition of N-terminal His6-tagged recombinant full-length human p110delta/untagged recombinant full length p85alpha expressed in baculovirus infected Sf21 cells using phosphatidylinositol as substrate in presence of gamma-32P-ATP after 5 mins by thin layer chromatographic method

Query: Requested field: IC50. Item: Cc1ccccc1-n1c(Cn2nc(Cl)c3c(N)ncnc32)cc2cccc(C)c2c1=O
Response: < 0.1 µM

Query: Requested field: IC50. Item: Cc1cccnc1-n1c(Cn2nc(-c3ccc(F)c(O)c3)c3c(N)ncnc32)cc2cccc(C)c2c1=O
Response: < 0.1 µM

Query: Requested field: IC50. Item: Cc1ccccc1-n1c(Cn2nc(C#C[C@@H](C)O)c3c(N)ncnc32)cc2cccc(F)c2c1=O
Response: < 1 µM

Query: Requested field: IC50. Item: Cc1cccc2cc(Cn3nc(I)c4c(N)ncnc43)n(-c3ccccc3O)c(=O)c12
Response: < 0.1 µM

Query: Requested field: IC50. Item: Cc1cccc2cc(Cn3nc(-c4cc(O)cc(F)c4)c4c(N)ncnc43)n(C3CC3)c(=O)c12
Response: < 0.1 µM

* * *

Biological target: Phosphatidylinositol 4,5-bisphosphate 3-kinase catalytic subunit gamma isoform (Homo sapiens, UniProt P48736)
Experiment: Inhibition of recombinant human C-terminal His6-tagged p110gamma expressed in insect cells using phosphatidylinositol as substrate in presence of gamma-32P-ATP after 5 mins by thin layer chromatographic method
pIC50: −log10 of the molar value.
Parameter pIC50: see the listing below.

Record excerpt, results attached:
Cc1cccc2cc([C@H](C)Nc3ncnc4[nH]nc(C#N)c34)n(-c3ccccc3)c(=O)c12    > 7.00
Cc1cccc2cc(Cn3nc(C#C[C@@H](C)O)c4c(N)ncnc43)n(C(C)C)c(=O)c12    > 5.00
Cc1ccccc1-n1c(Cn2nc(I)c3c(N)ncnc32)cc2cccc(F)c2c1=O    > 5.00
Cc1cccc2cc(Cn3nc(C#C[C@@H](C)O)c4c(N)ncnc43)n(C3CCCC3)c(=O)c12    > 5.00
Cc1ccccc1-n1c(Cn2nc(C(F)F)c3c(N)ncnc32)cc2cccc(C)c2c1=O    > 7.00
Cc1ccccc1-n1c(Cn2nc(-c3cc(O)cc(F)c3)c3c(N)ncnc32)cc2cccc(F)c2c1=O    > 6.00
Cc1cccc2cc([C@H](C)Nc3nc(N)ncc3Cl)n(-c3ccccc3)c(=O)c12    > 7.00
Cc1cccc2cc([C@H](C)Nc3ncnc4[nH]nc(C(N)=O)c34)n(C3CC3)c(=O)c12    > 7.00

# next molecule below
Query: Requested field: pIC50. Item: Cc1cccnc1-n1c(Cn2nc(C#C[C@@H](C)O)c3c(N)ncnc32)cc2cccc(C)c2c1=O
Response: < 5.00
